System: MS2 coat protein
TEST_DESCRIPTION: apparent KD of MS2 coat protein, switch ON state; designed switch direction (-1 OFF switch, 1 ON switch): -1; higher = weaker reporter binding
SETUP_CONDITIONS: FMN input: 0 or 200 uM; Eterna round: R93 (includes R88 designs)
MEASUREMENT_KIND: apparent KD of MS2 coat protein
Phrase the answer as number then unit, nothing more needed.

Study these solved cases before continuing.
SEQUENCE_RECORD	apparent KD of MS2 coat protein
GAAAAAGGAGGAUAUACGUACAUGUCAAAAGACGUGAAGGGACAUGAGGAUCACCCAUGUAGAAGGCUUAAAAG [Mat - Exclusion 2 - JL mod - D95]	59.4 nM
AGAAAGUCAGGAUAUCAGAAACUAGUCGAAACGACUAGAAAUGAGAAGGGACAUGAGGAUCACCCAUGUAAGAA [Ex4 sub 2]	46.3 nM
AAGAAGUCAGGAUAUGCGAAGGCGUCUGAUAGACGAGGCUAGCAGAAGGGACAUGAGGAUCACCCAUGUAAAGA [Mat - Exclusion 4 - D83]	45 nM
AGGGAGUGAGGAUAUACGAAAAAAAAAGAAGGAAAAAAAGAGUAGAAGGCACAUGAGGAUCACCCAUGUAAGAA [milkweed 13]	35.8 nM
AGGAAACAUGAGGAUCACCCAUGUAAGGAUAUGAACGAAAAUAAAUAAAAAUAAAAGUUCAGAAGGUACAAAAA [66%, Wbt, 6]	29.8 nM
AAAAACAGAGGAUAUACAAAAUGAUGACGAAAGUCAUCAAAACAUGAGGAUCACCCAUGUAGAAGGCUGAAAAA [Mod of Meechl]	24.2 nM

Req: Can you look up the measured apparent KD of MS2 coat protein of AACAGUACAGGAUAUACAUGAGGAUCACCCAUGUCACAACAAAGCAGCGCAACACAAAGUAGAAGGGUAAUGGA [Ruby 15] for me?
Resp: 34.6 nM

Req: Can you look up the measured apparent KD of MS2 coat protein of AUAGUACAUGAGGAUCACCCAUGUCAGGAUAUCGGAUAUGACAUGAAAAAAAUGUUAAUGAGAAGGGACUAUAA [EX1 Malc#18 Mod 1 - Jieux - Exclusion 1] for me?
Resp: 52.9 nM

Req: Can you look up the measured apparent KD of MS2 coat protein of AGAAAACGAGGAUAUGCAAGGGAAGAAAGAAGAGAGAAAAAACAUGAGGAUCACCCAUGUAGAAGGUGUAAAAA [JR_Exc002_Sub1714] for me?
Resp: 57.5 nM

Req: Can you look up the measured apparent KD of MS2 coat protein of AAAAGGUCAGGAUAUACAAAAAAAAAAAAAAAAAAAAAAAAGUAGAAGGGACAUGAGGAUCACCCAUGUGAAAA [Exclusion 4 - Omei 2] for me?
Resp: 64 nM

====

Parameter apparent KD of K4 kissing-loop reporter: see the listing below.
Tested on: K4 kissing-loop RNA reporter;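 also: bound reporter read as fluorescence of individual clusters on recovered sequencing chips by microscopy, with normalized cluster intensities fitted with a binding model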
TEST_DESCRIPTION: apparent KD of K4 kissing-loop reporter; higher = weaker reporter binding
SETUP_CONDITIONS: Eterna round: R107; input ligand: arginine 13.2 mM
// return numeric value only (unit: nM, not printed)

SEQUENCE_RECORD	QUANTITY_UNIT	RESULT_NUMBER
GUUACGCAUGGAAGGAGCGCAGGCUCAACUUGAAGCUCAGUGAUGUUGAGCAAAUUAAAACUGCAGGUAGGUCGCCAUGUGUAAC [Ex Arginine B K4 27]	nM	474

Req: Can you look up the measured apparent KD of K4 kissing-loop reporter of CGCGUAUCGGCAGGAUAUGGAGUUGAGUGAUGUUCAGCAAUGGGUCAUCAUCUUUAUGACAAUCCACCAGAAGGGCCGAUACGCG for me?
Resp: 632

Req: Can you look up the measured apparent KD of K4 kissing-loop reporter of GGAUAGGAUAGAGGAUAUGGGCUAGGCAAGAAUAACUUGUCUAGCAAAUCCAUGAGGAGUGAUGUUCCAGAAGGCUGUCCUAUCG [FmnBX 1 U9] for me?
Resp: 169
